# pKi per record follows
- EXPERIMENTAL TARGET: human dopamine D2L receptor (Homo sapiens, UniProt P14416)
- Sequence (P14416 whole entry): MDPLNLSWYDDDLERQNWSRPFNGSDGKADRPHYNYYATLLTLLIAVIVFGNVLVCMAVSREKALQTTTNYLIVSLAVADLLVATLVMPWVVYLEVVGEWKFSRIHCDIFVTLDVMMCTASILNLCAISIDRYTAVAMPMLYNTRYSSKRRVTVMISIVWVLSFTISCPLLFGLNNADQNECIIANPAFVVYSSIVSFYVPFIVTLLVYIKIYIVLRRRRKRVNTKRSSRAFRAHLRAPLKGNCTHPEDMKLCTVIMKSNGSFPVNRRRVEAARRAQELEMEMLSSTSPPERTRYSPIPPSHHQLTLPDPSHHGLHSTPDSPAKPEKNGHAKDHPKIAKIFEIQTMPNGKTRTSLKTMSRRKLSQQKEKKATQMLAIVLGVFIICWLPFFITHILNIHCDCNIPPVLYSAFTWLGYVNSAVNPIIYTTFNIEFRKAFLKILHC
- METHOD SUMMARY: Radioligand binding assay with [3H]spiperone, membranes of CHO cells stably expressing the receptor
Scale explanation: pKi corresponds to minus log10 of a concentration expressed in moles per litre.

Consider the worked cases shown below.
MOLECULE	EXPERIMENTAL TARGET	MEASUREMENT KIND	READOUT VALUE
CC(C)(C)NCC(O)c1cc(Cl)c(N)c(Cl)c1 (stereo not shown) [Clenbuterol, reference compound]	human dopamine D2L receptor (Homo sapiens, UniProt P14416)	pKi	4.30
CC(=O)OC1C(C)CN(C)C2Cc3c[nH]c4cccc(c34)C12 (stereo not shown) [Fumigaclavine A]	human dopamine D2L receptor (Homo sapiens, UniProt P14416)	pKi	5.96
CN(C)CCc1ccc(O)cc1 [Hordenine]	human dopamine D2L receptor (Homo sapiens, UniProt P14416)	pKi	4.89

Moving on to the next molecule.
Quick check: pKi on human dopamine D2L receptor (Homo sapiens, UniProt P14416), item CC[C@H]1CN2CCc3cc(OC)c(OC)cc3[C@@H]2C[C@@H]1C[C@H]1NCCc2cc(OC)c(OC)cc21 [Emetine, reference compound] ?
4.43

---

- EXPERIMENTAL TARGET: dopamine receptor subtype D2S (Homo sapiens)
- Sequence (P14416 1-414 isoform P14416-2): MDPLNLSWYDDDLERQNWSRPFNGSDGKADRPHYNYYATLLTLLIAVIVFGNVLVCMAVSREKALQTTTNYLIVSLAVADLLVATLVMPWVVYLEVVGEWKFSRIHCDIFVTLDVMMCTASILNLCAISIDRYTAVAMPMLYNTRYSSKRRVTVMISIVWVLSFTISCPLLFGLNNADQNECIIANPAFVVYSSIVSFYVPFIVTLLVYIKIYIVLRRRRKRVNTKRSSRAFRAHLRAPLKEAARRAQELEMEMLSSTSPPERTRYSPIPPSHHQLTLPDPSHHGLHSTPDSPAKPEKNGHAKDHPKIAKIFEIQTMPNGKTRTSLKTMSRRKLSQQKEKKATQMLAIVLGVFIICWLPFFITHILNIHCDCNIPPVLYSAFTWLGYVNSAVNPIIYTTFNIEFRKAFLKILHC
- METHOD SUMMARY: cAMP inhibition assay: inhibition of forskolin-stimulated cAMP accumulation (CAMYEL BRET sensor)
MEASUREMENT KIND: EC50 (nM)
Kindly provide the numeric value in nM only, without the unit symbol.

MOLECULE	EXPERIMENTAL TARGET	UNIT INFO	READOUT VALUE
CC(=O)OC1C(C)CN(C)C2Cc3c[nH]c4cccc(c34)C12 (centres unmarked)	dopamine receptor subtype D2S (Homo sapiens)	nM	250

Moving on to the next molecule.
State the recorded EC50 for this entry: CN(C)CCc1ccc(O)cc1
3700

---

- EXPERIMENTAL TARGET: human dopamine D2L receptor (Homo sapiens)
- METHOD SUMMARY: biochemical
pKi: −log10 of the molar value.
MEASUREMENT KIND: pKi

Consider the worked cases shown below.
COMPOUND	READOUT VALUE
N[C@@H](CCCCn1c(C=O)ccc1CO)C(=O)O [Pyrraline]	< 4.00
COc1ccc2c(c1OC)CN1CCc3cc4c(cc3C1=C2)OCO4 [Dihydroberberine]	4.12
N=C(N/N=C/c1ccc(Cl)cc1)N/N=C/c1ccc(Cl)cc1 [Robenidine, reference compound]	5.27

State the recorded pKi for this entry: O=C(CCc1ccc(O)c(O)c1)NCCCNCCCCNCCCNC(=O)CCc1ccc(O)c(O)c1 [Kukoamine A]
< 4.00

Another: Oc1cc(O)c2cc(O)c(-c3cc(O)c(O)c(O)c3)[o+]c2c1 [Delphinidin]
4.59

Another: COc1cc(C(=O)OCCCCNC(=N)N)cc(OC)c1O [Leonurine]
< 4.00

Another: C=CC(C)(C)[C@@]12C[C@H]3C(=O)N/C(=C/c4c[nH]cn4)C(=O)N3[C@@H]1Nc1ccccc12 [Roquefortine C]
< 4.00

Another: O=C(O)c1cn(-c2ccc(F)cc2)c2cc(N3CCNCC3)c(F)cc2c1=O [Sarafloxacin, reference compound]
< 4.00

Another: COC(=O)C1=CO[C@@H](C)[C@H]2CN3CCc4c([nH]c5ccccc45)[C@@H]3C[C@H]12 [Ajmalicine]
< 4.00

---

- EXPERIMENTAL TARGET: human dopamine D2L receptor (Homo sapiens, UniProt P14416)
- METHOD SUMMARY: Radioligand binding assay with [3H]spiperone, membranes of CHO cells stably expressing the receptor
pKi: −log10 of the molar value.
MEASUREMENT KIND: pKi

COMPOUND	MEASUREMENT KIND	READOUT VALUE
CC(Cc1ccc(C(C)(C)C)cc1)CN1C[C@@H](C)O[C@@H](C)C1 (stereo partly drawn)	pKi	< 4.00
O=C(CC1NCCCC1O)Cn1cnc2cc(Br)c(Cl)cc2c1=O (stereo not drawn) [Halofuginone, reference compound]	pKi	< 4.30

Moving on to the next compound.
State the recorded pKi for this entry: NCc1cc(=O)[nH]o1
< 4.00
